Entry source: patent US12466821B2

molecular target: human HSV DNA polymerase UL30 (Human herpesvirus 1 (strain 17) (HHV-1) (Human herpes simplex virus 1)); assay: HSV polymerase biochemical assay (molecular beacon-based)
pIC50: −log10 of the molar value.

{"Smiles Text": "Cc1cc(C(=O)NCc2ccc(Cl)cc2)c(=O)n2c1C(=O)N(CCN(C)S(C)(=O)=O)CC2", "pIC50": 5.82}
{"Smiles Text": "N#Cc1ccc(CNC(=O)c2ccc3n(c2=O)CCN(CC2(S(=O)(=O)C4(F)CC4)CC2)C3=O)cc1F", "pIC50": 7.11}
{"Smiles Text": "O=C(NCc1ccc(Cl)cc1)c1ccc2n(c1=O)CCN(CC1(N3CCOC3=O)CC1)C2=O", "pIC50": 5.90}
{"Smiles Text": "N#Cc1ccc(CNC(=O)c2ccc3n(c2=O)CCN(CC2(S(=O)(=O)C4CCC4)CC2)C3=O)cc1F", "pIC50": 7.18}
